IC50 values by entry
target or test system: murine MEKK2 (mMEKK2) (Mus musculus, UniProt Q61083)
Sequence (Q61083 whole entry): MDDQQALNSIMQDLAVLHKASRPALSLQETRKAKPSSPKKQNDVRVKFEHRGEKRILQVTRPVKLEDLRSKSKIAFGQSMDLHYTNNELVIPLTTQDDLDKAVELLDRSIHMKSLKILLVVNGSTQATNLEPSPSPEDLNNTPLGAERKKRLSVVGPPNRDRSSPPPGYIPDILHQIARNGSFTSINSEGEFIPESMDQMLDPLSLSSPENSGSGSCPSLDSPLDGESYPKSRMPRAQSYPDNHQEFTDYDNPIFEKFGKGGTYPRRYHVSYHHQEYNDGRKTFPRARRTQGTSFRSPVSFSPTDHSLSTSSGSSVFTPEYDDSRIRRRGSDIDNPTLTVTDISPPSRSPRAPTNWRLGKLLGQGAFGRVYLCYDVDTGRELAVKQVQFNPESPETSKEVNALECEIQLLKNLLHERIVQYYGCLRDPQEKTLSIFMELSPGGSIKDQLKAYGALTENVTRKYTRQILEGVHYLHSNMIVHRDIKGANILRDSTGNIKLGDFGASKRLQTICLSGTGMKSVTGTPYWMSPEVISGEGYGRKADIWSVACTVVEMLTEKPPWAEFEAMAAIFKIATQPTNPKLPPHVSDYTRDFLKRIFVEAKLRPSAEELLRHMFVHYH
method: TR-FRET kinase assay (mMEKK2/MBP)
Format: biochemical
experimental setup: substrate biotin MBP, 60 minutes at room temperature
Method: In one approach, MEKK2 inhibitory activity of compounds of the invention can be assessed using the time-resolved Fluorescence Resonance Energy Transfer (TR-FRET) assay detailed in Example 5. […] This fluorescent energy is measured using a time-resolved fluorescence measurement protocol (LANCE high count 615/665); excitation occurred with 1,000 flashes at 325 nm, measurement was delayed by 100 μs, and data were acquired for 50 μs at 615 and 665 nm. […]

In the examples that follow, each entry is paired with its recorded IC50.
compound	IC50
COc1cccc(-c2nc(SCc3ccc(NC(=O)c4ccc(OC(F)(F)F)cc4)cc3)[nH]c(=O)c2C#N)c1 [Example 2qq]	< 5 µM
COc1cccc(-c2nc(SCc3cccc(NCc4ccc(OCCN(C)c5ccncc5)cc4)c3)[nH]c(=O)c2C#N)c1 [Example 4b]	> 40 µM
COc1cccc(-c2nc(SCc3cccc(NCc4ccc(OC)nc4)c3)[nH]c(=O)c2C#N)c1 [Example 1n]	< 40 µM

Quick note, IC50 for COc1cccc(-c2nc(SCc3ccc(NC(=O)C4CCN(C(C)=O)CC4)cc3)[nH]c(=O)c2C#N)c1 [Example 2jjj] landed at < 20 µM

Quick note, IC50 for COc1cccc(-c2nc(SCc3ccc(NC(=O)Nc4cccc(Oc5ccccc5)c4)cc3)[nH]c(=O)c2C#N)c1 [Example 3v] landed at < 1 µM

Quick note, IC50 for COc1cccc(-c2nc(SCc3cccc(NC(=O)NC4CCCC4)c3)[nH]c(=O)c2C#N)c1 [Example 3f] landed at < 5 µM

Quick note, IC50 for COc1cccc(-c2nc(SCc3ccc(NC(=O)Nc4ccc5c(c4)OCO5)cc3)[nH]c(=O)c2C#N)c1 [Example 3p] landed at < 20 µM

Quick note, IC50 for COc1cccc(-c2nc(SCc3cccc(NCc4ccc5cccc(O)c5n4)c3)[nH]c(=O)c2C#N)c1 [Example 1v] landed at < 1 µM

* * *

target or test system: murine MEKK2 (mMEKK2) (Mus musculus, UniProt Q61083)
method: TR-FRET kinase assay (mMEKK2/MBP)
Type: biochemical
experimental setup: substrate biotin MBP, 60 minutes at room temperature
parameter: IC50

In the examples that follow, each entry is paired with its recorded IC50.
structure smiles string	target or test system	IC50
COc1cccc(-c2nc(SCc3ccc(NC(=O)c4ccc(Cl)nc4)cc3)[nH]c(=O)c2C#N)c1	murine MEKK2 (mMEKK2) (Mus musculus, UniProt Q61083)	< 20 µM
COc1cccc(-c2nc(SCc3cccc(NC(=O)c4cnn(C)c4Cl)c3)[nH]c(=O)c2C#N)c1	murine MEKK2 (mMEKK2) (Mus musculus, UniProt Q61083)	< 40 µM
COc1cccc(-c2nc(SCc3cccc(NCc4ccc(N5CCCCC5)cc4)c3)[nH]c(=O)c2C#N)c1	murine MEKK2 (mMEKK2) (Mus musculus, UniProt Q61083)	< 10 µM
COc1cccc(-c2nc(SCCCn3cnc4c(NCc5ccccc5)ncnc43)[nH]c(=O)c2C#N)c1	murine MEKK2 (mMEKK2) (Mus musculus, UniProt Q61083)	> 40 µM
COc1cccc(-c2nc(SCc3ccccc3NC(=O)c3ccccc3)[nH]c(=O)c2C#N)c1	murine MEKK2 (mMEKK2) (Mus musculus, UniProt Q61083)	< 40 µM

Short answer on murine MEKK2 (mMEKK2) (Mus musculus, UniProt Q61083) for `COc1cccc(-c2nc(SCc3cccc(NC(=O)NCCc4ccc5c(c4)OCO5)c3)[nH]c(=O)c2C#N)c1` , IC50: < 10 µM

Short answer on murine MEKK2 (mMEKK2) (Mus musculus, UniProt Q61083) for `COc1cccc(-c2nc(SCc3cccc(NCc4cccc(Oc5cccc(C(F)(F)F)c5)c4)c3)[nH]c(=O)c2C#N)c1` , IC50: < 1 µM

Short answer on murine MEKK2 (mMEKK2) (Mus musculus, UniProt Q61083) for `COc1cccc(-c2nc(SCc3cccc(NCc4ccc(-c5cccs5)s4)c3)[nH]c(=O)c2C#N)c1` , IC50: < 1 µM

Short answer on murine MEKK2 (mMEKK2) (Mus musculus, UniProt Q61083) for `N#Cc1c(-c2cccc([N+](=O)[O-])c2)nc(SCc2cccc(NC(=O)c3ccc(Cl)c(Cl)c3)c2)[nH]c1=O` , IC50: < 5 µM

Short answer on murine MEKK2 (mMEKK2) (Mus musculus, UniProt Q61083) for `COc1cccc(-c2nc(SCc3cccc(NCc4ccc(Cl)c(Cl)c4)c3)[nH]c(=O)c2C#N)c1` , IC50: < 1 µM

Short answer on murine MEKK2 (mMEKK2) (Mus musculus, UniProt Q61083) for `COc1cccc(-c2nc(SCc3cccc(NCc4ccccc4N4CCOCC4)c3)[nH]c(=O)c2C#N)c1` , IC50: < 5 µM

Short answer on murine MEKK2 (mMEKK2) (Mus musculus, UniProt Q61083) for `COc1cccc(-c2nc(SCc3ccc(NC(=O)Cc4ccccc4)cc3)[nH]c(=O)c2C#N)c1` , IC50: < 20 µM

Short answer on murine MEKK2 (mMEKK2) (Mus musculus, UniProt Q61083) for `COc1cccc(-c2nc(SCc3cccc(NCc4cnc(N(C)C)nc4)c3)[nH]c(=O)c2C#N)c1` , IC50: < 40 µM

Short answer on murine MEKK2 (mMEKK2) (Mus musculus, UniProt Q61083) for `COc1cccc(-c2nc(SCc3ccccc3NC(=O)c3cccc(C(F)(F)F)c3)[nH]c(=O)c2C#N)c1` , IC50: > 40 µM

Short answer on murine MEKK2 (mMEKK2) (Mus musculus, UniProt Q61083) for `COc1cccc(-c2nc(SCc3ccc(NC(=O)Nc4ccc(Cl)c(C(F)(F)F)c4)cc3)[nH]c(=O)c2C#N)c1` , IC50: < 5 µM
